LD50 at 72 h listing for selected molecules.
# run-description: acute toxicity in mice (LD50)
# Format: in vivo, male mouse CD1 (Charles River)
# condition-details: mouse, in vivo; oral, male CD1 mice, three days' observation; read-out: LD50 orally
The reply should be a number in mg/kg, with the unit left off.

Consider the following illustrative entries.
c1ccc2c(CC3CCNCC3)c[nH]c2c1 | 225
CN(C)CCCN1c2ccccc2CCc2ccc(Cl)cc21 [Clomipramine, reference compound] | 380
c1ccc2c(CCC3CCNCC3)c[nH]c2c1 [Example 10, [(INDOLYL-3)-2 ETHYL]-4 PIPERIDINE] | 600

Which LD50 at 72 h reading was recorded for the molecule Cn1cc(CCC2CCNCC2)c2ccccc21 ?
225

====

# run-description: acute toxicity in mice (LD50)
# Format: in vivo, male mouse CD1 (Charles River)
# condition-details: mouse, in vivo; intravenous, male CD1 mice, three days' observation; read-out: LD50 I.V.
# Experimental: The toxicity and acute symptomatologies of the compounds of the invention were determined in the male mouse CD1 (Charles River) in intravenous and oral manner. The LD50 were computed following three days' observation by the cumulative method of Reed & Muench (Am. J. Hyg. 27, 493, 1938).
LD50 at 72 h listing for selected molecules.
The reply should be a number in mg/kg, with the unit left off.

Consider the following illustrative entries.
CN(C)CCCN1c2ccccc2CCc2ccc(Cl)cc21 [Clomipramine, reference compound] | 45
c1ccc2c(CC3CCNCC3)c[nH]c2c1 | 57

Which LD50 at 72 h reading was recorded for the molecule Cn1cc(CCC2CCNCC2)c2ccccc21 ?
44

And the next one, c1ccc2c(CCC3CCNCC3)c[nH]c2c1 [Example 10, [(INDOLYL-3)-2 ETHYL]-4 PIPERIDINE] ?
60

And the next one, COc1ccc2[nH]cc(C(=O)CC3CCNCC3)c2c1 ?
44
